The reported measurements were obtained from ChEMBL document CHEMBL5252583.

inhibition at 500 µM reference
# System: MCF7
# test.method.notes: Antiproliferative activity against human MCF7 cells assessed as cell growth inhibition at 500 uM measured after 24 hrs by alamar blue assay relative to control
# Assay type: functional
A number alone suffices; assume %.

molecule CC/C=C\C/C=C\C/C=C\CCCCCCCC(=O)O , inhibition at 500 µM observed: 50

Lab note: measured inhibition at 500 µM of CC/C=C\C/C=C\C/C=C\CCCCCCCC(=O)Oc1ccc(C(F)(F)F)cc1 was 47

Just so you know, measured inhibition at 500 µM for CC/C=C\C/C=C\C/C=C\CCCCCCCC(=O)Oc1ccccc1 came out at 48

Given item CC/C=C\C/C=C\C/C=C\CCCCCCCC(=O)Oc1ccc(OC)cc1 , the value recorded as its inhibition at 500 µM is 49

----------
# test.method.notes: Drug uptake in human MIA PaCa-2 cells assessed as increase in incorporation of compound into lipid droplets by measuring absorbance at 50 uM incubated for 24 hrs by Oil Red O staining based fluorescence microscopic analysis (reference value: 2.35 +/- 0.11 10^-2No_unit)
# Type: ADME, cell-based
# measurement.context: mia paca-2, 24 h
Activity: recorded values

# structure.smiles, readout.name, experimental.result
records = [
    ("CC/C=C\\C/C=C\\C/C=C\\CCCCCCCC(=O)Oc1ccc(OC)cc1", "Activity", "3.94 10^-2No_unit"),
    ("CC/C=C\\C/C=C\\C/C=C\\CCCCCCCC(=O)Oc1ccccc1", "Activity", "4.12 10^-2No_unit"),
    ("CC/C=C\\C/C=C\\C/C=C\\CCCCCCCC(=O)Oc1ccc(C(F)(F)F)cc1", "Activity", "4.07 10^-2No_unit"),
]

Now turn to the next compound.
// field: Activity; key: CC/C=C\C/C=C\C/C=C\CCCCCCCC(=O)O ; value = 4.19 10^-2No_unit
